Catalogue of GLUCOSE values
species on record: Rattus norvegicus; experiment: DrugMatrix - Regimen: Daily Repeat; format: toxicity, organism-based, Sprague-Dawley; parameters: regimen Daily Repeat, gender Male, age 6-8 weeks; conditions: in vivo, po, 10 mg/kg, 120 h, tissue Plasma, route oral GAVAGE, dose level Low, time 5 day, vehicle .5 % CMC
# unit: mg/dL | format: bare number

Answered cases to consult:
O=C1CN=C(c2ccccc2Cl)c2cc([N+](=O)[O-])ccc2N1 [CLONAZEPAM] ... 177.67
CNCCC(Oc1ccc(C(F)(F)F)cc1)c1ccccc1 (centres undefined) [FLUOXETINE] ... 169
Fc1ccc(C(c2ccc(F)cc2)N2CCN(C/C=C/c3ccccc3)CC2)cc1 [FLUNARIZINE] ... 150.67

Please examine the following record next.
Reported GLUCOSE ( O=C1C(CC[S+]([O-])c2ccccc2)C(=O)N(c2ccccc2)N1c1ccccc1 (centres undefined) [SULFINPYRAZONE] ) = 139.33

---

species on record: Rattus norvegicus; test: DrugMatrix - Regimen: Daily Repeat; format: toxicity, organism-based, Sprague-Dawley; set-up: regimen Daily Repeat, gender Male, age 6-8 weeks; settings: in vivo, po, 1500 mg/kg, 120 h, tissue Plasma, route oral GAVAGE, dose level High, time 5 day, vehicle .5 % CMC
Catalogue of SODIUM values
# unit: MEQ/L | format: bare number

Answered cases to consult:
CC(C)=CCC/C(C)=C/CO ... 142.2
CC(C)Oc1ccc2c(=O)c(-c3ccccc3)coc2c1 ... 145.4
O=c1cnn([C@@H]2O[C@H](CO)[C@@H](O)[C@H]2O)c(=O)[nH]1 ... 145.83
CN(C)[C@@H]1C(O)=C(C(N)=O)C(=O)[C@@]2(O)C(O)=C3C(=O)c4c(O)ccc(Cl)c4[C@@](C)(O)[C@H]3C[C@@H]12 ... 144.1

Please examine the following record next.
Reported SODIUM ( COC(=O)Nc1nc2ccc([S+]([O-])c3ccccc3)cc2[nH]1 (stereo not given) ) = 146.13

---

Catalogue of ABSOLUTE LYMPHOCYTE values
species: Rattus norvegicus; test: DrugMatrix - Regimen: Daily Repeat; format: toxicity, organism-based, Sprague-Dawley; set-up: regimen Daily Repeat, gender Male, age 6-8 weeks; details: in vivo, po, 2000 mg/kg, 72 h, tissue Blood, route oral GAVAGE, dose level High, time 3 day, vehicle .5 % CMC
# unit: CELLS/uL | format: bare number

COc1cc2nc(N3CCN(C(=O)c4ccco4)CC3)nc(N)c2cc1OC ... 7483.33
CC1(C)S[C@@H]2[C@H](NC(=O)[C@H](N)c3ccccc3)C(=O)N2[C@H]1C(=O)O ... 12938
CN/C(=N/CCSCc1nc[nH]c1C)NC#N ... 13681

Please examine the following record next.
Reported ABSOLUTE LYMPHOCYTE ( O=C1Nc2ccc(Cl)cc2C(c2ccccc2Cl)=NC1O (centres undefined) ) = 11320

---

species on record: Rattus norvegicus; assay: DrugMatrix - Regimen: Daily Repeat; type: toxicity, organism-based, Sprague-Dawley; parameters: regimen Daily Repeat, gender Male, age 6-8 weeks; settings: in vivo, po, 10 mg/kg, 72 h, tissue Blood, route oral GAVAGE, dose level Low, time 3 day, vehicle .5 % CMC
Catalogue of NEUTROPHIL values
# unit: % | format: bare number

Answered cases to consult:
O=C1CN=C(c2ccccc2Cl)c2cc([N+](=O)[O-])ccc2N1 ... 5.33
Fc1ccc(C(c2ccc(F)cc2)N2CCN(C/C=C/c3ccccc3)CC2)cc1 ... 8.33
O=C1C(CC[S+]([O-])c2ccccc2)C(=O)N(c2ccccc2)N1c1ccccc1 (centres undefined) ... 7

Please examine the following record next.
Reported NEUTROPHIL ( CNCCC(Oc1ccc(C(F)(F)F)cc1)c1ccccc1 (centres undefined) ) = 13.67

---

organism: Rattus norvegicus; assay: DrugMatrix - Regimen: Daily Repeat; type: toxicity, organism-based, Sprague-Dawley; set-up: regimen Daily Repeat, gender Male, age 6-8 weeks; conditions: in vivo, po, 0 mg/kg, 120 h, tissue Blood, route oral GAVAGE, dose level Control, time 5 day, vehicle 100 % WATER
property measured: NUCLEATED RED BLOOD CELLS

Answered cases to consult:
CS(=O)(=O)c1ccc([C@@H](O)[C@@H](CO)NC(=O)C(Cl)Cl)cc1 [THIAMPHENICOL] ... 0 /100WBC
CCN(CC)CCNC(=O)c1cc(S(C)(=O)=O)ccc1OC [TIAPRIDE] ... 0 /100WBC

Please examine the following record next.
Reported NUCLEATED RED BLOOD CELLS ( CC(C)(C)CC(C)(C)c1ccc(OCCOCC[N+](C)(C)Cc2ccccc2)cc1.[Cl-] [BENZETHONIUM CHLORIDE] ) = 0.17 /100WBC

---

species: Rattus norvegicus; assay: DrugMatrix - Regimen: Daily Repeat; format: toxicity, organism-based, Sprague-Dawley; parameters: regimen Daily Repeat, gender Male, age 6-8 weeks; conditions: in vivo, po, 50 mg/kg, 72 h, tissue Plasma, route oral GAVAGE, dose level Low, time 3 day, vehicle .5 % CMC
property measured: BLOOD UREA NITROGEN (mg/dL)
# unit: mg/dL | format: bare number

Answered cases to consult:
CCN1CCC[C@H]1CNC(=O)c1cc(S(N)(=O)=O)ccc1OC [LEVOSULPIRIDE] ... 13.33
NC1CCN(c2nc3c(cc2F)c(=O)c(C(=O)O)cn3-c2ccc(F)cc2F)C1 (centres undefined) [TOSUFLOXACIN] ... 13

Reported BLOOD UREA NITROGEN ( Cc1cccc(C)c1OCC(C)N (centres undefined) [MEXILETINE] ) = 15

Reported BLOOD UREA NITROGEN ( CN(C)[C@@H]1C(O)=C(C(N)=O)C(=O)[C@@]2(O)C(O)=C3C(=O)c4c(O)ccc(Cl)c4[C@@](C)(O)[C@H]3C[C@@H]12 [CHLORTETRACYCLINE] ) = 16.67

---

Catalogue of PLATELET COUNT values
species on record: Rattus norvegicus; experiment: DrugMatrix - Regimen: Daily Repeat; assay type: toxicity, organism-based, Sprague-Dawley; design: regimen Daily Repeat, gender Male, age 6-8 weeks; conditions: in vivo, po, 0 mg/kg, 72 h, tissue Blood, route oral GAVAGE, dose level Control, time 3 day, vehicle 100 % WATER
# unit: x10E3/uL | format: bare number

Cc1ccc(NC(=O)c2ccc(CN3CCN(C)CC3)cc2)cc1Nc1nccc(-c2cccnc2)n1 ... 1333.33

Reported PLATELET COUNT ( NNc1nncc2ccccc12 [HYDRALAZINE] ) = 1193.5

Reported PLATELET COUNT ( CCN(CC)CCNC(=O)c1cc(S(C)(=O)=O)ccc1OC [TIAPRIDE] ) = 1333.33

Reported PLATELET COUNT ( CN1[C@@H]2CC[C@H]1C[C@@H](OC(=O)C(CO)c1ccccc1)C2 (stereo partly drawn) ) = 1162.5

Reported PLATELET COUNT ( `CN(C)CC[C@@H](c1ccc(Cl)cc1)c1ccccn1` ) = 1246.17

Reported PLATELET COUNT ( CC(C)NCC(O)c1ccc(NS(C)(=O)=O)cc1 (stereo not drawn) ) = 1313.17

Reported PLATELET COUNT ( `CS(=O)(=O)c1ccc([C@@H](O)[C@@H](CO)NC(=O)C(Cl)Cl)cc1` ) = 1333.33

Reported PLATELET COUNT ( `Cn1c(=O)c2[nH]cnc2n(C)c1=O.O` ) = 1312.17

Reported PLATELET COUNT ( `C[C@]12C=CC(=O)C=C1CC[C@@H]1[C@@H]2[C@@H](O)C[C@@]2(C)[C@H]1CC[C@]2(O)C(=O)CO` ) = 1189.83

Reported PLATELET COUNT ( `Oc1cccc(O)c1O` ) = 911.5

Reported PLATELET COUNT ( CN(C)CCOC(c1ccccc1)c1ccccc1 [DIPHENHYDRAMINE] ) = 1193.5

Reported PLATELET COUNT ( O.O.O.O.O.O.[Cl-].[Cl-].[Sr+2] [STRONTIUM CHLORIDE HEXAHYDRATE] ) = 1333.33

Reported PLATELET COUNT ( CC(C)(C)CC(C)(C)c1ccc(OCCOCC[N+](C)(C)Cc2ccccc2)cc1.[Cl-] [BENZETHONIUM CHLORIDE] ) = 1193.5

---

organism: Rattus norvegicus; experiment: DrugMatrix - Regimen: Daily Repeat; assay type: toxicity, organism-based, Sprague-Dawley; parameters: regimen Daily Repeat, gender Male, age 6-8 weeks; conditions: in vivo, po, 1500 mg/kg, 120 h, tissue Plasma, route oral GAVAGE, dose level High, time 5 day, vehicle .5 % CMC
Catalogue of CHOLESTEROL values
In your response, put the unit directly after the numeric value.

Answered cases to consult:
COC(=O)Nc1nc2ccc([S+]([O-])c3ccccc3)cc2[nH]1 (stereo not given) [OXFENDAZOLE] ... 69.67 mg/dL
CC(C)Oc1ccc2c(=O)c(-c3ccccc3)coc2c1 [IPRIFLAVONE] ... 53 mg/dL
CC(C)=CCC/C(C)=C/CO [GERANIOL] ... 85.67 mg/dL
CN(C)[C@@H]1C(O)=C(C(N)=O)C(=O)[C@@]2(O)C(O)=C3C(=O)c4c(O)ccc(Cl)c4[C@@](C)(O)[C@H]3C[C@@H]12 [CHLORTETRACYCLINE] ... 57 mg/dL

Please examine the following record next.
Reported CHOLESTEROL ( O=c1cnn([C@@H]2O[C@H](CO)[C@@H](O)[C@H]2O)c(=O)[nH]1 [6-AZAURIDINE] ) = 68.67 mg/dL

The measurements presented in this section are drawn from ChEMBL document CHEMBL3885881.
